- Tested on: 931267-113-T-J1-PDC multicell spheroid viability
- Measurement notes: Anticancer human tumor 931267-113-T-J1-PDC patient-derived colon adenocarcinoma cell line growth inhibition [PI3K]
- Measurement parameters: curve of first compound; second compound 3.16 µM

# Compound, Assay target, Censor symbol, IC50, nM
measured = [
    ("Cn1ncnc1[C@H]1c2n[nH]c(=O)c3cc(F)cc(c23)N[C@@H]1c1ccc(F)cc1 + CC(Nc1ncnc2nc[nH]c12)c1cc2cccc(Cl)c2c(=O)n1-c1ccccc1", "931267-113-T-J1-PDC multicell spheroid viability", ">", 100),
    ("Cn1cnc2c(F)c(Nc3ccc(Br)cc3Cl)c(C(=O)NOCCO)cc21 + Cc1nc(NC(=O)N2CCCC2C(N)=O)sc1-c1ccnc(C(C)(C)C(F)(F)F)c1", "931267-113-T-J1-PDC multicell spheroid viability", "=", 19.6),
    ("CCN1CCN(Cc2ccc(Nc3ncc(F)c(-c4cc(F)c5nc(C)n(C(C)C)c5c4)n3)nc2)CC1 + CC(Nc1ncnc2nc[nH]c12)c1cc2cccc(Cl)c2c(=O)n1-c1ccccc1", "931267-113-T-J1-PDC multicell spheroid viability", ">", 1000),
    ("CC1(C)CCC(CN2CCN(c3ccc(C(=O)NS(=O)(=O)c4ccc(NCC5CCOCC5)c([N+](=O)[O-])c4)c(Oc4cnc5[nH]ccc5c4)c3)CC2)=C(c2ccc(Cl)cc2)C1 + Cc1nc(NC(=O)N2CCCC2C(N)=O)sc1-c1ccnc(C(C)(C)C(F)(F)F)c1", "931267-113-T-J1-PDC multicell spheroid viability", "=", 4440),
    ("Cn1ncc(Cl)c1-c1cc(C(=O)NC(CN)Cc2cccc(F)c2)sc1Cl (stereo not given) + CC(Nc1ncnc2nc[nH]c12)c1cc2cccc(Cl)c2c(=O)n1-c1ccccc1", "931267-113-T-J1-PDC multicell spheroid viability", "=", 6200),
]

----------
- System: 931267-113-T-J1-PDC multicell spheroid viability
- Measurement notes: Anticancer human tumor 931267-113-T-J1-PDC cell line growth inhibition [PI3K];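 also: viability read 7 days after compound addition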
- Measurement parameters: second compound 0.1 µM; first compound 0.00949 µM; stronger effect = lower value
Attribute measured: viability, T/C (%)

# Molecule, Units of measure, Reported measurement
rows = [
    ("Cn1cnc2c(F)c(Nc3ccc(Br)cc3Cl)c(C(=O)NOCCO)cc21 + Cc1nc(NC(=O)N2CCCC2C(N)=O)sc1-c1ccnc(C(C)(C)C(F)(F)F)c1", "%", 85.7),
    ("Cn1cnc2c(F)c(Nc3ccc(Br)cc3Cl)c(C(=O)NOCCO)cc21 + CC(Nc1ncnc2nc[nH]c12)c1cc2cccc(Cl)c2c(=O)n1-c1ccccc1", "%", 89.1),
    ("Cn1cnc2c(F)c(Nc3ccc(Br)cc3Cl)c(C(=O)NOCCO)cc21 + COc1c(OCCCN2CCOCC2)ccc2c3n(c(=NC(=O)c4cnc(N)nc4)nc12)CCN3", "%", 56.4),
    ("Cn1cnc2c(F)c(Nc3ccc(Br)cc3Cl)c(C(=O)NOCCO)cc21 + CC(Nc1ccc2c(c1)OCCn1cc(N3C(=O)OCC3C(F)F)nc1-2)C(N)=O", "%", 75.9),
]

----------
- Test system: 931267-113-T-J1-PDC multicell spheroid viability
- Measurement notes: Anticancer human tumor 931267-113-T-J1-PDC cell line growth inhibition [PI3K];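 also: viability read 7 days after compound addition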
- Measurement parameters: second compound 0.316 µM; first compound 0.1 µM; stronger effect = lower value
- Source text: Combinatorial screen of targeted agents with the PI3K inhibitors inavolisib, alpelisib, duvelisib, and copanlisib in multi-cell type tumor spheroids A high-throughput screen of multi-cell type tumor spheroids was designed to identify active combinations of targeted small molecules and PI3K pathway inhibitors. […] Compounds. […] If the clinical Cmax for an agent had not been determined, the highest concentration tested was 10 microM. […]

# Molecule, viability, T/C / %
data = [
    ("Cn1ncnc1[C@H]1c2n[nH]c(=O)c3cc(F)cc(c23)N[C@@H]1c1ccc(F)cc1 + CC(Nc1ncnc2nc[nH]c12)c1cc2cccc(Cl)c2c(=O)n1-c1ccccc1", 106),
    ("CC1(C)CCC(CN2CCN(c3ccc(C(=O)NS(=O)(=O)c4ccc(NCC5CCOCC5)c([N+](=O)[O-])c4)c(Oc4cnc5[nH]ccc5c4)c3)CC2)=C(c2ccc(Cl)cc2)C1 + CC(Nc1ncnc2nc[nH]c12)c1cc2cccc(Cl)c2c(=O)n1-c1ccccc1", 98.2),
    ("C#Cc1c(F)ccc2cc(O)cc(-c3ncc4c(N5CC6CCC(C5)N6)nc(OCC56CCCN5CC(F)C6)nc4c3F)c12 (stereo not drawn) + COc1c(OCCCN2CCOCC2)ccc2c3n(c(=NC(=O)c4cnc(N)nc4)nc12)CCN3", 26.7),
]

----------
The following molecules are shown together with reported IC50 values.
- Test system: 931267-113-T-J1-PDC multicell spheroid viability
- Measurement notes: Anticancer human tumor 931267-113-T-J1-PDC cell line growth inhibition [PI3K];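 also: viability read 7 days after compound addition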
- Measurement parameters: curve of compound
Attribute measured: IC50

# Molecule, Reported measurement
records = [
    ("Cn1cnc2c(F)c(Nc3ccc(Br)cc3Cl)c(C(=O)NOCCO)cc21", "118 nM [middle of 4 runs]"),
    ("CC1(C)CCC(Nc2ncc(C(F)(F)F)c(-c3c[nH]c4c(P(C)(C)=O)c(C#N)ccc34)n2)CN1 (centres undefined)", "> 10 µM"),
    ("CCN1CCN(Cc2ccc(Nc3ncc(F)c(-c4cc(F)c5nc(C)n(C(C)C)c5c4)n3)nc2)CC1", "> 1 µM"),
    ("Cn1ncnc1[C@H]1c2n[nH]c(=O)c3cc(F)cc(c23)N[C@@H]1c1ccc(F)cc1", "> 0.1 µM"),
]

----------
- Test system: 931267-113-T-J1-PDC multicell spheroid viability
- Measurement notes: Anticancer human tumor 931267-113-T-J1-PDC cell line growth inhibition [PI3K];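 also: viability read 7 days after compound addition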
- Measurement parameters: second compound 0.01 µM; first compound 10 µM; stronger effect = lower value

# Compound, viability, T/C / %
data = [
    ("C#Cc1c(F)ccc2cc(O)cc(-c3ncc4c(N5CC6CCC(C5)N6)nc(OCC56CCCN5CC(F)C6)nc4c3F)c12 (centres undefined) + CC(Nc1ccc2c(c1)OCCn1cc(N3C(=O)OCC3C(F)F)nc1-2)C(N)=O", 24.8),
    ("CNC(=O)c1ccc(N2C(=S)N(c3ccc(C#N)c(C(F)(F)F)c3)C(=O)C2(C)C)cc1F + COc1c(OCCCN2CCOCC2)ccc2c3n(c(=NC(=O)c4cnc(N)nc4)nc12)CCN3", 94.2),
    ("Cn1nccc1Nc1nccc(-c2ccn(C(CO)c3ccc(Cl)c(F)c3)c(=O)c2)n1 (centres undefined) + CC(Nc1ccc2c(c1)OCCn1cc(N3C(=O)OCC3C(F)F)nc1-2)C(N)=O", 37.2),
    ("C[C@@H](NC(=O)c1ncnc(N)c1Cl)c1ncc(C(=O)Nc2cc(C(F)(F)F)c(Cl)cn2)s1 + CC(Nc1ccc2c(c1)OCCn1cc(N3C(=O)OCC3C(F)F)nc1-2)C(N)=O", 66.7),
]

----------
- Test system: 931267-113-T-J1-PDC multicell spheroid viability
- Measurement notes: Anticancer human tumor 931267-113-T-J1-PDC cell line growth inhibition [PI3K];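 also: viability read 7 days after compound addition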
- Measurement parameters: second compound 0.1 µM; first compound 1 µM; stronger effect = lower value
- From the text: Combinatorial screen of targeted agents with the PI3K inhibitors inavolisib, alpelisib, duvelisib, and copanlisib in multi-cell type tumor spheroids A high-throughput screen of multi-cell type tumor spheroids was designed to identify active combinations of targeted small molecules and PI3K pathway inhibitors. […] Compounds. […] If the clinical Cmax for an agent had not been determined, the highest concentration tested was 10 microM. […]

# Compound, Assay target, Units of measure, viability, T/C
measured = [
    ("CCN1CCN(Cc2ccc(Nc3ncc(F)c(-c4cc(F)c5nc(C)n(C(C)C)c5c4)n3)nc2)CC1 + COc1c(OCCCN2CCOCC2)ccc2c3n(c(=NC(=O)c4cnc(N)nc4)nc12)CCN3", "931267-113-T-J1-PDC multicell spheroid viability", "%", 50.8),
    ("C[C@@H](NC(=O)c1ncnc(N)c1Cl)c1ncc(C(=O)Nc2cc(C(F)(F)F)c(Cl)cn2)s1 + CC(Nc1ccc2c(c1)OCCn1cc(N3C(=O)OCC3C(F)F)nc1-2)C(N)=O", "931267-113-T-J1-PDC multicell spheroid viability", "%", 95.9),
    ("CC1(C)CCC(Nc2ncc(C(F)(F)F)c(-c3c[nH]c4c(P(C)(C)=O)c(C#N)ccc34)n2)CN1 (stereo not given) + CC(Nc1ccc2c(c1)OCCn1cc(N3C(=O)OCC3C(F)F)nc1-2)C(N)=O", "931267-113-T-J1-PDC multicell spheroid viability", "%", 74),
    ("CCN1CCN(Cc2ccc(Nc3ncc(F)c(-c4cc(F)c5nc(C)n(C(C)C)c5c4)n3)nc2)CC1 + CC(Nc1ccc2c(c1)OCCn1cc(N3C(=O)OCC3C(F)F)nc1-2)C(N)=O", "931267-113-T-J1-PDC multicell spheroid viability", "%", 60.9),
    ("C#Cc1c(F)ccc2cc(O)cc(-c3ncc4c(N5CC6CCC(C5)N6)nc(OCC56CCCN5CC(F)C6)nc4c3F)c12 (stereo not given) + COc1c(OCCCN2CCOCC2)ccc2c3n(c(=NC(=O)c4cnc(N)nc4)nc12)CCN3", "931267-113-T-J1-PDC multicell spheroid viability", "%", 19),
    ("Cn1nccc1Nc1nccc(-c2ccn(C(CO)c3ccc(Cl)c(F)c3)c(=O)c2)n1 (stereo not given) + CC(Nc1ncnc2nc[nH]c12)c1cc2cccc(Cl)c2c(=O)n1-c1ccccc1", "931267-113-T-J1-PDC multicell spheroid viability", "%", 87.5),
    ("C[C@@H](NC(=O)c1ncnc(N)c1Cl)c1ncc(C(=O)Nc2cc(C(F)(F)F)c(Cl)cn2)s1 + COc1c(OCCCN2CCOCC2)ccc2c3n(c(=NC(=O)c4cnc(N)nc4)nc12)CCN3", "931267-113-T-J1-PDC multicell spheroid viability", "%", 65),
    ("C#Cc1c(F)ccc2cc(O)cc(-c3ncc4c(N5CC6CCC(C5)N6)nc(OCC56CCCN5CC(F)C6)nc4c3F)c12 (stereo not given) + CC(Nc1ccc2c(c1)OCCn1cc(N3C(=O)OCC3C(F)F)nc1-2)C(N)=O", "931267-113-T-J1-PDC multicell spheroid viability", "%", 29.4),
    ("Cn1ncc(Cl)c1-c1cc(C(=O)NC(CN)Cc2cccc(F)c2)sc1Cl (stereo not given) + Cc1nc(NC(=O)N2CCCC2C(N)=O)sc1-c1ccnc(C(C)(C)C(F)(F)F)c1", "931267-113-T-J1-PDC multicell spheroid viability", "%", 85),
    ("CC1(C)CCC(CN2CCN(c3ccc(C(=O)NS(=O)(=O)c4ccc(NCC5CCOCC5)c([N+](=O)[O-])c4)c(Oc4cnc5[nH]ccc5c4)c3)CC2)=C(c2ccc(Cl)cc2)C1 + Cc1nc(NC(=O)N2CCCC2C(N)=O)sc1-c1ccnc(C(C)(C)C(F)(F)F)c1", "931267-113-T-J1-PDC multicell spheroid viability", "%", 102),
    ("CC(Cn1ccc(-c2ccc(C#N)c(Cl)c2)n1)NC(=O)c1cc(C(C)O)[nH]n1 (stereo not given) + COc1c(OCCCN2CCOCC2)ccc2c3n(c(=NC(=O)c4cnc(N)nc4)nc12)CCN3", "931267-113-T-J1-PDC multicell spheroid viability", "%", 65.4),
    ("C=CC(=O)N1CCN(c2nc(=O)n(-c3c(C)ccnc3C(C)C)c3nc(-c4c(O)cccc4F)c(F)cc23)C(C)C1 (stereo not given) + CC(Nc1ccc2c(c1)OCCn1cc(N3C(=O)OCC3C(F)F)nc1-2)C(N)=O", "931267-113-T-J1-PDC multicell spheroid viability", "%", 102),
    ("C#Cc1c(F)ccc2cc(O)cc(-c3ncc4c(N5CC6CCC(C5)N6)nc(OCC56CCCN5CC(F)C6)nc4c3F)c12 (stereo not given) + Cc1nc(NC(=O)N2CCCC2C(N)=O)sc1-c1ccnc(C(C)(C)C(F)(F)F)c1", "931267-113-T-J1-PDC multicell spheroid viability", "%", 41.4),
    ("Cn1nccc1Nc1nccc(-c2ccn(C(CO)c3ccc(Cl)c(F)c3)c(=O)c2)n1 (stereo not given) + Cc1nc(NC(=O)N2CCCC2C(N)=O)sc1-c1ccnc(C(C)(C)C(F)(F)F)c1", "931267-113-T-J1-PDC multicell spheroid viability", "%", 68.9),
    ("CC1(C)CCC(Nc2ncc(C(F)(F)F)c(-c3c[nH]c4c(P(C)(C)=O)c(C#N)ccc34)n2)CN1 (stereo not given) + COc1c(OCCCN2CCOCC2)ccc2c3n(c(=NC(=O)c4cnc(N)nc4)nc12)CCN3", "931267-113-T-J1-PDC multicell spheroid viability", "%", 58.2),
    ("CNC(=O)c1ccc(N2C(=S)N(c3ccc(C#N)c(C(F)(F)F)c3)C(=O)C2(C)C)cc1F + COc1c(OCCCN2CCOCC2)ccc2c3n(c(=NC(=O)c4cnc(N)nc4)nc12)CCN3", "931267-113-T-J1-PDC multicell spheroid viability", "%", 68.5),
    ("CC1(C)CCC(Nc2ncc(C(F)(F)F)c(-c3c[nH]c4c(P(C)(C)=O)c(C#N)ccc34)n2)CN1 (stereo not given) + CC(Nc1ncnc2nc[nH]c12)c1cc2cccc(Cl)c2c(=O)n1-c1ccccc1", "931267-113-T-J1-PDC multicell spheroid viability", "%", 93.1),
    ("C[C@@H](NC(=O)c1ncnc(N)c1Cl)c1ncc(C(=O)Nc2cc(C(F)(F)F)c(Cl)cn2)s1 + CC(Nc1ncnc2nc[nH]c12)c1cc2cccc(Cl)c2c(=O)n1-c1ccccc1", "931267-113-T-J1-PDC multicell spheroid viability", "%", 111),
    ("CC1(C)CCC(CN2CCN(c3ccc(C(=O)NS(=O)(=O)c4ccc(NCC5CCOCC5)c([N+](=O)[O-])c4)c(Oc4cnc5[nH]ccc5c4)c3)CC2)=C(c2ccc(Cl)cc2)C1 + CC(Nc1ccc2c(c1)OCCn1cc(N3C(=O)OCC3C(F)F)nc1-2)C(N)=O", "931267-113-T-J1-PDC multicell spheroid viability", "%", 97.9),
    ("CCN1CCN(Cc2ccc(Nc3ncc(F)c(-c4cc(F)c5nc(C)n(C(C)C)c5c4)n3)nc2)CC1 + Cc1nc(NC(=O)N2CCCC2C(N)=O)sc1-c1ccnc(C(C)(C)C(F)(F)F)c1", "931267-113-T-J1-PDC multicell spheroid viability", "%", 84.5),
]
